src = PubChem BioAssay AID330

# key: entry, value: T/C
System: P388 leukemia ip, CD2F1 mice, survival T/C
Assay: NCI In Vivo Anticancer Drug Screen. Data for tumor model P388 Leukemia (intraperitoneal) in CD2F1 (CDF1) mice
Conditions: endpoint: median survival time; dose: 60.0 mg/kg/injection; schedule: Q01DX005 (ip); vehicle: Klucel (hydroxypropylcellulose) (HPC); higher = longer survival
Toxic doses and inconclusive results are not listed.

compound	assayed_target	measure	reported_result
CC(C)(C)C1=CC(C#N)N(Cc2ccccc2)CC1 (stereo not given)	P388 leukemia ip, CD2F1 mice, survival T/C	T/C	110 % of control

The reported P388 leukemia ip, CD2F1 mice, survival T/C T/C of Cc1cccc(Nc2c(C(=O)O)cnc3cc4c(cc23)OCO4)c1C is 96 % of control

The reported P388 leukemia ip, CD2F1 mice, survival T/C T/C of O=C1C2=C(Nc3ccccc3N2)OC1c1ccc(C2OC3=C(Nc4ccccc4N3)C2=O)cc1 (stereo not given) is 88 % of control

The reported P388 leukemia ip, CD2F1 mice, survival T/C T/C of O=C(NC1C=Nc2ccccc2NC1=O)c1ccc(Cl)cc1 (stereo not given) is 91 % of control

====

System: P388 leukemia ip, CD2F1 mice, survival T/C
Test: NCI In Vivo Anticancer Drug Screen. Data for tumor model P388 Leukemia (intraperitoneal) in CD2F1 (CDF1) mice
Conditions: endpoint: median survival time; dose: 50.0 mg/kg/injection; schedule: Q04DX003 (ip); vehicle: saline; higher = longer survival
Inconclusive results and toxic doses are left out.
measure: T/C

compound	assayed_target	T/C
CSC(SC)=C(C#N)C#N	P388 leukemia ip, CD2F1 mice, survival T/C	105 % of control

Entry CN(C)CC(Cl)CCl (stereo unspecified) — recorded T/C = 109 % of control

Entry NNC(=O)CCCO — recorded T/C = 105 % of control

Entry O=CC1C(=O)NC(=O)NC1=O — recorded T/C = 100 % of control

Entry COc1cccc2c1C(=O)c1c(O)c3c(c(O)c1C2=O)C[C@@](O)(C(C)=O)CC3OC1CC(NC(=O)CCN)C(O)C(C)O1 (stereo partly specified) — recorded T/C = 97 % of control

Entry CC(/C=N/N=C(N)N)=N/N=C(N)N — recorded T/C = 100 % of control

====

Tested on: P388 leukemia ip, CD2F1 mice, survival T/C
Assay: NCI In Vivo Anticancer Drug Screen. Data for tumor model P388 Leukemia (intraperitoneal) in CD2F1 (CDF1) mice
Details: endpoint: median survival time; dose: 240.0 mg/kg/injection; schedule: Q01DX005 (ip); vehicle: Klucel (hydroxypropylcellulose) (HPC); higher = longer survival
Inconclusive results and toxic doses are left out.
measure: T/C

Record excerpt, results attached:
1) Nc1nc(=O)n(CCCSc2ccc([N+](=O)[O-])cc2)cc1-c1ccc(Cl)c(Cl)c1 88 % of control
2) O/N=C/C(=Nc1ccc2ccccc2c1)NO 98 % of control

Turning to the following compound.
Entry Cc1cccc(Nc2c(C(=O)O)cnc3cc4c(cc23)OCO4)c1C — recorded T/C = 111 % of control

====

System: P388 leukemia ip, CD2F1 mice, survival T/C
Assay: NCI In Vivo Anticancer Drug Screen. Data for tumor model P388 Leukemia (intraperitoneal) in CD2F1 (CDF1) mice
Conditions: endpoint: median survival time; dose: 50.0 mg/kg/injection; schedule: Q01DX005 (ip); vehicle: saline with Tween-80; higher = longer survival
Inconclusive results and toxic doses are left out.
measure: T/C

Record excerpt, results attached:
molecule	T/C
CC1(C)C(=O)c2ccccc2-c2ccccc21	101 % of control
O=c1[nH]cc([N+](=O)[O-])cc1Cl	104 % of control
COC(=O)c1c(-c2ccc(OC)c(OC)c2)cn(C)c1C	104 % of control
NC(=O)c1oc([N+](=O)[O-])c(-c2ccccc2)c1-c1ccccc1	99 % of control
O=C(Nc1cccc2c1CCCC2)c1cc2ccccc2cc1O	92 % of control

Entry Clc1ccccc1-n1cccc1/C=N\N=C/c1cccn1-c1ccccc1Cl — recorded T/C = 107 % of control

Entry O=C1CCC2OC3CCC(=O)N3CN12 (configuration not stated) — recorded T/C = 97 % of control

====

# key: entry, value: T/C
System: P388 leukemia ip, CD2F1 mice, survival T/C
Test: NCI In Vivo Anticancer Drug Screen. Data for tumor model P388 Leukemia (intraperitoneal) in CD2F1 (CDF1) mice
Conditions: endpoint: median survival time; dose: 400.0 mg/kg/injection; schedule: Q01DX001 (ip); vehicle: saline with Tween-80; higher = longer survival
Toxic doses and inconclusive results are not listed.

Record excerpt, results attached:
molecule	assayed_target	T/C
Cc1cc([N+](=O)[O-])cc(Br)c1N	P388 leukemia ip, CD2F1 mice, survival T/C	95 % of control
CCC1(O)C(=O)OCc2c1cc1n(c2=O)Cc2ccccc2-1 (stereo unspecified)	P388 leukemia ip, CD2F1 mice, survival T/C	92 % of control

Entry CCCC(Cc1ccccc1)C(=O)O (stereo unspecified) — recorded T/C = 124 % of control

Entry CCC(c1ccc(OC)cc1)C(NCC(=O)N/N=C/c1ccccc1[N+](=O)[O-])c1ccc(OC)cc1 (stereo unspecified) — recorded T/C = 96 % of control

Entry O=C(O)CCc1c(-c2ccccc2)c(-c2ccccc2)c2n1CCC2 — recorded T/C = 97 % of control

Entry C=CC[S+]1CCCCC1C=C (stereo unspecified) — recorded T/C = 95 % of control

Entry Cn1c2c(c(=O)n(C)c1=O)N1c3c(n(C)c(=O)n(C)c3=O)NN1C(c1ccccc1)=N2 — recorded T/C = 89 % of control

Entry N#C[C@H]1C[C@@H](c2ccc([N+](=O)[O-])cc2)N(c2ccc(C=O)cc2)O1 — recorded T/C = 99 % of control

Entry CC(=O)OC1C(=O)OCC1C(=O)N1Cc2cc3ccccc3nc2C1 (stereo unspecified) — recorded T/C = 105 % of control

Entry C=C1OC(C2CCCCC2)=C(C(=O)OCC)C1C (stereo unspecified) — recorded T/C = 100 % of control

Entry COC(=O)C1=NNc2ccccc2C(OC(C)=O)C1C (stereo unspecified) — recorded T/C = 97 % of control

====

Tested on: P388 leukemia ip, CD2F1 mice, survival T/C
Experiment: NCI In Vivo Anticancer Drug Screen. Data for tumor model P388 Leukemia (intraperitoneal) in CD2F1 (CDF1) mice
Settings: endpoint: median survival time; dose: 12.5 mg/kg/injection; schedule: Q01DX009 (ip); vehicle: saline with Tween-80; higher = longer survival
Toxic doses and inconclusive results are not listed.
# key: entry, value: T/C

compound	assayed_target	T/C
NNC(=O)C1CCCC1	P388 leukemia ip, CD2F1 mice, survival T/C	104 % of control
COc1ccc2c3c1OC1C(O)C=CC4C(C2)N(C)CCC341 (configuration not stated)	P388 leukemia ip, CD2F1 mice, survival T/C	112 % of control
CC(=O)[C@@]1(O)CC[C@H]2[C@@H]3C=C(C)C4=CC(=O)CC[C@]4(C)[C@@]3(F)[C@@H](O)C[C@@]21C	P388 leukemia ip, CD2F1 mice, survival T/C	100 % of control

The reported P388 leukemia ip, CD2F1 mice, survival T/C T/C of CC(=Nc1ccccc1)Nc1ccccc1.[Cu+2] is 109 % of control

The reported P388 leukemia ip, CD2F1 mice, survival T/C T/C of O=C(NC(=O)c1c(F)cccc1F)Nc1ccc(Cl)nc1 is 102 % of control

The reported P388 leukemia ip, CD2F1 mice, survival T/C T/C of Cc1c(C=[N+]2CCCCC2)c2ccccc2n1C is 109 % of control

The reported P388 leukemia ip, CD2F1 mice, survival T/C T/C of CN(C)N=Nc1cccc(Cl)c1 is 100 % of control

The reported P388 leukemia ip, CD2F1 mice, survival T/C T/C of CC1=C(/C=C/C(C)=N/NC(N)=S)C(C)(C)CCC1 is 115 % of control

The reported P388 leukemia ip, CD2F1 mice, survival T/C T/C of CC(=O)c1ccc(N=C2C(=O)Nc3ccccc32)cc1 is 93 % of control

The reported P388 leukemia ip, CD2F1 mice, survival T/C T/C of O=C1NS(=O)(=O)Oc2c1ccc1ccccc21 is 108 % of control

The reported P388 leukemia ip, CD2F1 mice, survival T/C T/C of COc1nncc(-c2cnnc(OC)n2)n1 is 102 % of control

The reported P388 leukemia ip, CD2F1 mice, survival T/C T/C of CCOc1ccc(NC(=O)OCCN2CCN(CCc3ccccc3)C(C)C2)cc1 (configuration not stated) is 97 % of control

The reported P388 leukemia ip, CD2F1 mice, survival T/C T/C of [N-]=[N+]=NC(=O)c1cccs1 is 100 % of control

The reported P388 leukemia ip, CD2F1 mice, survival T/C T/C of CN(C)c1ccc(/C=C/c2ccnc3c(O)ccc(O)c23)cc1 is 91 % of control

The reported P388 leukemia ip, CD2F1 mice, survival T/C T/C of CN(C)C(=S)SCN1CCCCC1 is 101 % of control

The reported P388 leukemia ip, CD2F1 mice, survival T/C T/C of CC1(O)C(c2ccccc2)=C(c2ccccc2)C2(c3ccccc3)Oc3c(Cl)c(Cl)c(Cl)c(Cl)c3OC12c1ccccc1 (configuration not stated) is 94 % of control

The reported P388 leukemia ip, CD2F1 mice, survival T/C T/C of Oc1nc(-c2ccccc2)sc1-c1ccc(Cl)cc1 is 93 % of control

The reported P388 leukemia ip, CD2F1 mice, survival T/C T/C of Cn1cccc1[N+](=O)[O-] is 100 % of control

The reported P388 leukemia ip, CD2F1 mice, survival T/C T/C of O=[N+]([O-])c1cccc2nsnc12 is 116 % of control

The reported P388 leukemia ip, CD2F1 mice, survival T/C T/C of O=C(C[n+]1ccccc1)N/N=C/c1cccc([N+](=O)[O-])c1 is 102 % of control

The reported P388 leukemia ip, CD2F1 mice, survival T/C T/C of CCCCNCCC(SSSC(CCNCCCC)c1ccc(Cl)cc1)c1ccc(Cl)cc1 (configuration not stated) is 100 % of control

The reported P388 leukemia ip, CD2F1 mice, survival T/C T/C of COc1cc(O)c(C(C)=O)c(O)c1 is 93 % of control
